Provenance of the data: patent US20220031842A1

Molecular target: T1, Fusion protein of LAG-3 extracellular region and hIgG1 Fc (human)
T1 construct: Limits of the signal peptide are marked only by lost underlining; also called LAG-3-Fc; LAG-3-Fc fusion protein
T1 sequence (chain, as listed by the source limits assumed): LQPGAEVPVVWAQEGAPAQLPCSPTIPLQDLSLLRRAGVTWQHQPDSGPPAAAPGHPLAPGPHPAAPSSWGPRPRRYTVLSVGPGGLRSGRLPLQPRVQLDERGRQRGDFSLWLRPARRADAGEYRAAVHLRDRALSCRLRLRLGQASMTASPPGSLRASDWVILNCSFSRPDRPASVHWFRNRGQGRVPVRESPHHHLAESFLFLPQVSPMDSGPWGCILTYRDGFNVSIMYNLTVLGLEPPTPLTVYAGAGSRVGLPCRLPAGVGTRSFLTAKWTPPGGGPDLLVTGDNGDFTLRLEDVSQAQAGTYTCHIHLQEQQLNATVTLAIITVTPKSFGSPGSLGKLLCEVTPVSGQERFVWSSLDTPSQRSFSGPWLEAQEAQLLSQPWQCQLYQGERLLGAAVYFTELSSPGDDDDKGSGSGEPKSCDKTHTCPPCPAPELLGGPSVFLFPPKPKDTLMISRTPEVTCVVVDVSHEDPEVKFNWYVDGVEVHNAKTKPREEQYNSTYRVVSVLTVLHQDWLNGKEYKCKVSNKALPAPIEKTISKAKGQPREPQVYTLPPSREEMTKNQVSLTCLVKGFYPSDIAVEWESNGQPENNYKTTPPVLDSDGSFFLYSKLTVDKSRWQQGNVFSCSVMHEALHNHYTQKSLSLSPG
Assay: competition: biotin-LAG-3-Fc binding to fixed Daudi cells, antibody titrated

{"binder": "Hu229-019 (antibody, human IgG4 S228P, kappa, V domains shown, Humanized mAb229) VH: QVQLVQSGSELKKPGASVKVSCKASGYTFTTSGMSWVKQAPGQGLKWMGWINTYSGVPTYADDFKGRFVFSLDTSVSTAYLQISSLKAEDTATYFCARDNYDARDVYYYAMDYWGQGTTVTVSS VL: DIQMTQSPSSLSASVGDRVTITCRASENIYSNLAWYQQKPGKSPKLLVYAATNLADGVPSRFSGSGSGTQYTLTISSLQPEDFATYYCQHFWITPWTFGGGTKVEIKR", "measureUnit": "nM", "IC50": 0.289}
{"binder": "Hu303-007 (antibody, human IgG4 S228P, kappa, V domains shown, Humanized mAb303) VH: QVQLVQSGAEVKKPGASVKVSCKASGYTFTDYYMNWVRQAPGQRLEWMGVINPYNGDTAYNQKFKGRVTITRDTSASTAYMELSSLRSEDTAVYYCARDDGYYDYYFDVWGQGTTVTVSS VL: DIQMTQSPSSLSASVGDRVTITCRASQDIGSRLNWLQQKPGKAFKRLIYATSTLDSGVPKRFSGSRSGTDFTLTISSLQPEDFATYYCLQLASSPPTFGGGTKVEIKR", "measureUnit": "nM", "IC50": 0.343}
{"binder": "Hu303-011 (antibody, human IgG4 S228P, kappa, V domains shown, Humanized mAb303) VH: QVQLVQSGAEVKKPGASVKVSCKASGYTFTDYYMNWVRQAPGQRLEWMGVINPYNGDTAYNQKFKGRVTITVDKSASTAYMELSSLRSEDTAVYYCTRDDGYYDYYFDVWGQGTTVTVSS VL: DIQMTQSPSSLSASVGDRVTITCRASQDIGSRLNWYQQKPGKAPKRLIYATSTLDSGVPKRFSGSRSGTDFTLTISSLQPEDFATYYCLQLASSPPTFGGGTKVEIKR", "measureUnit": "nM", "IC50": 0.728}
{"binder": "mAb303 (antibody, V domains shown, Murine hybridoma antibody; also called LAG-3 antibody mAb303; hybridoma clone mAb303) VH: EVQLQQSGPVLVKPGASVKMSCKASGYTLTDYYMNWVKQSHGKSLEWIGVINPYNGDTAYNQKFKGKATLTVDKSSNTAYMEINSLTSEDSAVYYCTRDDGYYDYYFDVWGTGTTVTVSS VL: DIQMTQSPSSLSASLGERVILTCRASQDIGSRLNWLQQGPDGTFKRLIYATSTLDSGVPKRFSGSRSGSDFSLTISSLESEDFVDYYCLQLASSPPTFGGGTKLEIK", "measureUnit": "nM", "IC50": 0.596}
{"binder": "Hu303-022 (antibody, human IgG4 S228P, kappa, V domains shown, Humanized mAb303) VH: QVQLVQSGAEVKKPGASVKVSCKASGYTLTDYYMNWVRQAPGQRLEWIGVINPYNGDTAYNQKFKGRATLTVDKSASTAYMELSSLRSEDTAVYYCTRDDGYYDYYFDVWGQGTTVTVSS VL: DIQMTQSPSSLSASVGDRVTITCRASQDIGSRLNWLQQKPGKAFKRLIYATSTLDSGVPKRFSGSRSGTDFTLTISSLQPEDFATYYCLQLASSPPTFGGGTKVEIKR", "measureUnit": "nM", "IC50": 0.36}
